Would you mind telling me the reported ANGPTL3-LINEAR FOLD CHANGE of each entry?
Test system: ANGPTL3
Test: RNA-seq of ANGPTL3 expression in compound-treated primary human hepatocytes; note: test concentration or dose not given here
Type: cell-based
Conditions: additional compounds (Table 13), linear fold change
Protocol: Human hepatocytes were obtained from two donors from Massachusetts General Hospital, namely MGH54 and MGH63, and one donor from Lonza, namely HUM4111B. […] For mRNA isolation and library prep, the NEBNext Poly(A) mRNA Magnetic Isolation Module and Directional Prep kit was used. RNA isolated from cells above was quantified, and prepared in […] of each sample in 50 μl of nuclease-free water. […]
Where a name gives a salt, the structure may show the parent alone.

So what ANGPTL3-LINEAR FOLD CHANGE did Cc1c(C(=O)NN2CCCCC2)nn(-c2ccc(Cl)cc2Cl)c1-c1ccc(Cl)cc1 get with ANGPTL3?
0.4538

So what ANGPTL3-LINEAR FOLD CHANGE did CCOC(=O)C1=C(COCCN)NC(C)=C(C(=O)OC)C1c1ccccc1Cl (stereo not drawn) [Amlodipine Besylate] get with ANGPTL3?
0.3035

So what ANGPTL3-LINEAR FOLD CHANGE did O=C(O)c1ccc(Nc2ncc3c(n2)-c2ccc(Cl)cc2C(c2c(F)cccc2F)=NC3)cc1 get with ANGPTL3?
0.2755

So what ANGPTL3-LINEAR FOLD CHANGE did Cc1nc2n(c(=O)c1CCN1CCC(c3noc4cc(F)ccc34)CC1)CCCC2 get with ANGPTL3?
0.3231

So what ANGPTL3-LINEAR FOLD CHANGE did c1ccc2c(-c3cnn4cc(-c5ccc(N6CCNCC6)cc5)cnc34)ccnc2c1 get with ANGPTL3?
0.4204

So what ANGPTL3-LINEAR FOLD CHANGE did CCc1nc(-c2cccc(C)c2)c(-c2ccnc(NC(=O)c3ccccc3)c2)s1 get with ANGPTL3?
0.4538

So what ANGPTL3-LINEAR FOLD CHANGE did O=C(O)Cc1cccc(OCCCN(Cc2cccc(C(F)(F)F)c2Cl)CC(c2ccccc2)c2ccccc2)c1 get with ANGPTL3?
2.071

So what ANGPTL3-LINEAR FOLD CHANGE did CC(C)NC(=O)C1CCC(n2c(NC(=O)c3ccc(F)cc3)nc3ccc(CN4CCC(C(C)(C)O)CC4)cc32)CC1 (stereo not drawn) get with ANGPTL3?
0.3121

So what ANGPTL3-LINEAR FOLD CHANGE did C[C@@H]1CN(Cc2ccc(F)cc2)[C@@H](C)CN1C(=O)c1cc2c(C(=O)C(=O)N(C)C)cn(C)c2cc1Cl get with ANGPTL3?
0.3711

So what ANGPTL3-LINEAR FOLD CHANGE did CN1CCN(S(=O)(=O)c2ccc(-c3cnc(N)c(C(=O)Nc4cccnc4)n3)cc2)CC1 get with ANGPTL3?
0.3186

So what ANGPTL3-LINEAR FOLD CHANGE did CC(=O)c1ccc2c(c1)N(CCCN1CCC(CCO)CC1)c1ccccc1S2 get with ANGPTL3?
0.4033

So what ANGPTL3-LINEAR FOLD CHANGE did CC(C)(Sc1cc(C(C)(C)C)c(O)c(C(C)(C)C)c1)Sc1cc(C(C)(C)C)c(OC(=O)CCC(=O)O)c(C(C)(C)C)c1 get with ANGPTL3?
0.3896

So what ANGPTL3-LINEAR FOLD CHANGE did CN[C@H]1CC[C@@H](c2ccc(Cl)c(Cl)c2)c2ccccc21 [Sertraline HCl] get with ANGPTL3?
0.3816

So what ANGPTL3-LINEAR FOLD CHANGE did Cc1c(C(=O)Nc2ccc(N3C[C@@H](C)O[C@@H](C)C3)nc2)cccc1-c1ccc(OC(F)(F)F)cc1 [Sonidegib (Erismodegib, NVP-LDE225), Sonidegib] get with ANGPTL3?
0.4897

So what ANGPTL3-LINEAR FOLD CHANGE did NCC(=O)Nc1ccc(-n2nc(C(F)(F)F)cc2-c2ccc3c(ccc4ccccc43)c2)cc1 get with ANGPTL3?
0.4965

So what ANGPTL3-LINEAR FOLD CHANGE did C/C=C1\NC(=O)[C@H]2CSSCC/C=C/[C@H](CC(=O)N[C@H](C(C)C)C(=O)N2)OC(=O)[C@H](C(C)C)NC1=O [Romidepsin (FK228, Depsipeptide), Romidepsin] get with ANGPTL3?
0.1349

So what ANGPTL3-LINEAR FOLD CHANGE did Cc1cnc(Nc2ccc(OCCN3CCCC3)cc2)nc1Nc1cccc(S(=O)(=O)NC(C)(C)C)c1 [Fedratinib (SAR302503, TG101348), Fedratinib] get with ANGPTL3?
0.1119

So what ANGPTL3-LINEAR FOLD CHANGE did N#Cc1ccc2[nH]c(O)c(-c3ccc(CN4CCOCC4)cn3)c2c1 get with ANGPTL3?
0.2238

So what ANGPTL3-LINEAR FOLD CHANGE did O=C(c1ccc(F)c(F)c1Nc1ccc(I)cc1F)N1CC(O)([C@@H]2CCCCN2)C1 get with ANGPTL3?
0.2333

So what ANGPTL3-LINEAR FOLD CHANGE did Cc1cc(C)c(/C=C2\C(=O)Nc3ccccc32)[nH]1 get with ANGPTL3?
0.2449

So what ANGPTL3-LINEAR FOLD CHANGE did COc1cc2c(Oc3ccc4[nH]c(C)cc4c3F)ncnc2cc1OCCCN1CCCC1 get with ANGPTL3?
0.4323

So what ANGPTL3-LINEAR FOLD CHANGE did COc1ccc(Cl)c(Nc2nc3ccccc3nc2NS(=O)(=O)c2cccc(NC(=O)C(C)(C)N)c2)c1 get with ANGPTL3?
0.2606

So what ANGPTL3-LINEAR FOLD CHANGE did C[C@@H](Oc1cc(-n2cnc3ccc(CN4CCN(C)CC4)cc32)sc1C(N)=O)c1ccccc1C(F)(F)F get with ANGPTL3?
0.3078

So what ANGPTL3-LINEAR FOLD CHANGE did CNc1nc(-c2ccc3c(N)n[nH]c3c2)cc(N2C[C@@H](C(=O)NC3CCCCC3)CC[C@H]2C)n1 get with ANGPTL3?
0.4538
